Test system: MDA-MB-231 breast
Assay: NCI-60 one-dose screen, 48 h (100 = growth as untreated, 0 = no growth, -100 = all killed)
Conditions: 10 µM unless noted
About 83,000 compounds went through this panel and 20% of them were active in at least one assay; those are over-represented in the sample as a whole.
Could you please report measured growth for the items listed next?
Quick note: give the figure in %, leave out the unit.

I'd like to know its growth. The compound in question is `O=C(N/N=C\c1ccc(N(CCCl)CCCl)cc1)c1cccc([N+](=O)[O-])c1`
89.2

I'd like to know its growth. The compound in question is `C[C@@]1(CCCCCCCCCc2ccc(O)cc2)C[C@]2(C)OC(=O)C[C@@H]2OO1`
105

I'd like to know its growth. The compound in question is `C#Cc1ccc2c(c1)C(c1ccccc1F)=NCC(=O)N2C`
50.6

I'd like to know its growth. The compound in question is O=C(CC1(O)C(=O)N(Cc2ccccc2)c2ccc(F)cc21)c1ccc(C(=O)NCC2CCC3(CC2)OOC2(CCCCC2)OO3)cc1 (stereo not given)
-74

I'd like to know its growth. The compound in question is `COc1cc(/C=C/[N+](=O)[O-])cc(OC)c1`
13.4

---

System: HT29 colon
Experiment: NCI-60 one-dose screen, 48 h (100 = growth as untreated, 0 = no growth, -100 = all killed)
Conditions: 10 µM unless noted
This is part of a sample that, as a whole, favours compounds with a hit. Of some 83,000 tested, about 20% had one in any assay.
outcomeMeasure: growth (%)
Quick note: give the figure in %, leave out the unit.

I'd like to know its growth. The compound in question is `O=[As](O)(O)c1ccccc1[As](=O)(O)O`
109

I'd like to know its growth. The compound in question is `Nc1ccc2c(c1)Cc1cc(Br)ccc1-2`
119

I'd like to know its growth. The compound in question is `COC(=O)[C@H](Cc1ccccc1)NNC(=O)c1csc([C@@H](C[C@H](C(C)C)N(C)C(=O)[C@@H](NC(=O)[C@H]2CCCCN2C)C2CC2)OC(C)=O)n1`
4.57

I'd like to know its growth. The compound in question is `C/C(=C\c1cc(C(F)(F)F)nn1CCNC(=O)OC(C)(C)C)[C@@H]1C[C@@H]2O[C@]2(C)CCC[C@H](C)[C@H](O)[C@@H](C)C(=O)C(C)(C)[C@@H](O)CC(=O)O1`
23.6

I'd like to know its growth. The compound in question is `CC(C)=CCC/C(C)=C/C=N\N=C(/N)N[N+](=O)[O-]`
97.6

I'd like to know its growth. The compound in question is `COC(=O)[C@@H](C)C[C@H](Cc1ccccc1)NC(=O)c1cccc([C@@H](C[C@H](C(C)C)N(C)C(=O)[C@@H](NC(=O)[C@H]2CCCCN2C)C(C)C)OC(C)=O)n1`
6.05

I'd like to know its growth. The compound in question is `O=Cc1cn(Cc2ccc(Cl)cc2)c2ccccc12`
106

I'd like to know its growth. The compound in question is OCCNC(Cc1ccccc1)c1ccc2c(c1)OCO2 (stereo not drawn)
73

---

System: HCC-2998 colon
Assay: NCI-60 one-dose screen, 48 h
Details: 10 µM unless noted
This is part of a sample that, as a whole, favours compounds with a hit. Of some 83,000 tested, about 20% had one in any assay. Calls of active or inactive are those of the source. Rule for the calls: active = growth percent below 10; inactive = the rest.
Hi there, use one of these labels in your reply, thanks! active, inactive

What was the test verdict on COc1cc(NC(C)CCCNC2CN3CCC2CC3)c2ncccc2c1 (stereo unspecified) ?
inactive

What was the test verdict on `O=C(O)CNC(=O)C(Cl)(Cl)Cl` ?
inactive

What was the test verdict on `CCn1c2ccccc2c2cc(C(=O)c3ccc(C)c4ccccc34)ccc21` ?
inactive

What was the test verdict on `CNC(=O)Oc1cccc(C(F)(F)F)c1` ?
inactive

What was the test verdict on `CCC(=O)Nc1ccc(Cl)c(Cl)c1` ?
inactive

What was the test verdict on `Clc1ccc(CO/N=C(\Cn2ccnc2)c2ccc(Cl)cc2Cl)c(Cl)c1` ?
active

meta.source: PubChem BioAssay (NCI)
